System: PHOX2B
method.description: 3' UTR reporter interaction score (median-centred robust z-score of log2 firefly/Renilla activity); higher = less repression of the 3' UTR reporter
run.conditions: HEK293T; 48 h
Recorded 3' UTR reporter interaction score determines the group label, using low = under -0.6, middle = from -0.6 up to 0.3, high = 0.3 and over

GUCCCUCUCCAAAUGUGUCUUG = middle
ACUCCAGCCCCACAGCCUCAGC = high
CAAAGUGCUUACAGUGCAGGUAGU = high
GAGCCAGUUGGACAGGAGC = middle
GAACGCCUGUUCUUGCCAGGUGG = low
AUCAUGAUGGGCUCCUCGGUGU = middle
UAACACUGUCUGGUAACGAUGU = middle
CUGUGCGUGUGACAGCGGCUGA = low

Query: Into which bin does this sequence go? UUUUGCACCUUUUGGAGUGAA
Reply: low

Query: Into which bin does this sequence go? UACUGCAUCAGGAACUGAUUGGAU
Reply: middle

###

For each entry below, report its 3' UTR reporter interaction score value.
Tested on: ZEB2
method.description: 3' UTR reporter interaction score (median-centred robust z-score of log2 firefly/Renilla activity); higher = less repression of the 3' UTR reporter
run.conditions: HEK293T; 48 h
Answers are plain numbers.

// each listed sequence needs a value for 3' UTR reporter interaction score
1. AUCAUAGAGGAAAAUCCACGU
2. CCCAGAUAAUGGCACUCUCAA
3. UUGUGUCAAUAUGCGAUGAUGU
4. AAACAAACAUGGUGCACUUCUUU
5. UACCCAUUGCAUAUCGGAGUUG
6. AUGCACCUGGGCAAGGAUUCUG
7. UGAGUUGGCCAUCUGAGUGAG
8. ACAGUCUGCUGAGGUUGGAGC

Reply:
[-0.144, 0.427, 0.639, -0.365, -2.65, -2.03, 0.14, 1.65]

###

For each entry below, report its 3' UTR reporter interaction score value.
System: NOTCH1
method.description: 3' UTR reporter interaction score (median-centred robust z-score of log2 firefly/Renilla activity); higher = less repression of the 3' UTR reporter
run.conditions: HEK293T; 48 h
Give bare numbers.

// each listed sequence needs a value for 3' UTR reporter interaction score
1. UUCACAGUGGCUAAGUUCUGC
2. UUUGGCACUAGCACAUUUUUGC
3. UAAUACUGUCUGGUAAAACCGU
4. GCCCCUGGGCCUAUCCUAGAA
5. AGCUCGGUCUGAGGCCCCUCAG
6. CAAGUCACUAGUGGUUCCGUUUA
7. AUCAACAGACAUUAAUUGGGCGC
8. UUGCAUAUGUAGGAUGUCCCAU

Reply:
1: 1.04; 2: 0.319; 3: -1.39; 4: -0.931; 5: 1.23; 6: 1.15; 7: -1.2; 8: 0.153

###

For each entry below, report its 3' UTR reporter interaction score value.
System: BRCA2
method.description: 3' UTR reporter interaction score (median-centred robust z-score of log2 firefly/Renilla activity); higher = less repression of the 3' UTR reporter
run.conditions: HEK293T; 48 h

AGCUGGUGUUGUGAAUC = -0.493
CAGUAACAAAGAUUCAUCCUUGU = -0.621
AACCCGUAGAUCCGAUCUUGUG = 0.969
CAAAGCGCUUCUCUUUAGAGUG = 0.562
ACUCAAAACCCUUCAGUGACUU = 0.794
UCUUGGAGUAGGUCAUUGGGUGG = 0.0799
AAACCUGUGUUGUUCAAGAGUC = 1.31
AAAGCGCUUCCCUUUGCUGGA = -0.221

// each listed sequence needs a value for 3' UTR reporter interaction score
1. UAUUGCUUAAGAAUACGCGUAG
2. UGGCAGUGUCUUAGCUGGUUGUU
3. AUAAUACAUGGUUAACCUCUUU
4. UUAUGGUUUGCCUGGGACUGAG
5. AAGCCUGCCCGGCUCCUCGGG
6. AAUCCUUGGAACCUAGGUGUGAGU
7. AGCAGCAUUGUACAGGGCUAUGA

Reply:
1: 0.543; 2: 0.486; 3: -0.764; 4: 0.104; 5: 0.422; 6: 0.643; 7: 0.461

###

System: HRAS
method.description: 3' UTR reporter interaction score (median-centred robust z-score of log2 firefly/Renilla activity); higher = less repression of the 3' UTR reporter
run.conditions: HEK293T; 48 h
Each entry gets false (0) if its 3' UTR reporter interaction score stays under 0.3, and true (1) if its 3' UTR reporter interaction score is 0.3 or above.

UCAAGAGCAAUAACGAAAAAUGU = false (0)
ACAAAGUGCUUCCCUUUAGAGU = true (1)
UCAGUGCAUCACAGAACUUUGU = false (0)
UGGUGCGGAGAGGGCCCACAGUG = false (0)
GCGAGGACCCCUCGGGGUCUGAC = false (0)
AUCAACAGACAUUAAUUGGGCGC = true (1)

Query: Determine whether measured 3' UTR reporter interaction score meets or exceeds 0.3 for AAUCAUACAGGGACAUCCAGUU
Reply: false (0)

Query: Determine whether measured 3' UTR reporter interaction score meets or exceeds 0.3 for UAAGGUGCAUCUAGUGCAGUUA
Reply: false (0)

Query: Determine whether measured 3' UTR reporter interaction score meets or exceeds 0.3 for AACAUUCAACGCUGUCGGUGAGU
Reply: false (0)

Query: Determine whether measured 3' UTR reporter interaction score meets or exceeds 0.3 for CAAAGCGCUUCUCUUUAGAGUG
Reply: true (1)

Query: Determine whether measured 3' UTR reporter interaction score meets or exceeds 0.3 for CUCUAGAGGGAAGCACUUUCUCU
Reply: true (1)

Query: Determine whether measured 3' UTR reporter interaction score meets or exceeds 0.3 for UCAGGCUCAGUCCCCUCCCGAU
Reply: false (0)

Query: Determine whether measured 3' UTR reporter interaction score meets or exceeds 0.3 for GUUUGCACGGGUGGGCCUUGUCU
Reply: false (0)

Query: Determine whether measured 3' UTR reporter interaction score meets or exceeds 0.3 for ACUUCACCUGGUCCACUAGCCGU
Reply: false (0)

Query: Determine whether measured 3' UTR reporter interaction score meets or exceeds 0.3 for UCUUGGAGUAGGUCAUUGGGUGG
Reply: true (1)

Query: Determine whether measured 3' UTR reporter interaction score meets or exceeds 0.3 for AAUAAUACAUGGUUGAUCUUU
Reply: false (0)

###

For each entry below, report its 3' UTR reporter interaction score value.
System: MYT1L
method.description: 3' UTR reporter interaction score (median-centred robust z-score of log2 firefly/Renilla activity); higher = less repression of the 3' UTR reporter
run.conditions: HEK293T; 48 h

# example entries with known answers
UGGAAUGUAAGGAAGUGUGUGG = 0.351
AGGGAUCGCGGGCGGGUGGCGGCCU = -0.194

// each listed sequence needs a value for 3' UTR reporter interaction score
1. GUGCCUACUGAGCUGAUAUCAGU
2. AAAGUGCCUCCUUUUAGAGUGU
3. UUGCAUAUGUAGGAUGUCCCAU
4. UGAAACAUACACGGGAAACCUCUU
5. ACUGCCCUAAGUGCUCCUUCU
6. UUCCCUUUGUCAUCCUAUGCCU

Reply:
1. -1.1
2. 0.764
3. -1.22
4. 0.0487
5. 0.161
6. -0.655

###

Test system: FBXW7
method.description: 3' UTR reporter interaction score (median-centred robust z-score of log2 firefly/Renilla activity); higher = less repression of the 3' UTR reporter
run.conditions: HEK293T; 48 h
assay.endpoint: 3' UTR reporter interaction score

# example entries with known answers
UUAAGACUUGCAGUGAUGUUUAA = 1.23
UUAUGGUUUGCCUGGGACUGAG = -3.46

// each listed sequence needs a value for 3' UTR reporter interaction score
1. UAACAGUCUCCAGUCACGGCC
2. GUGCAUUGUAGUUGCAUUG
3. UUGCAUAGUCACAAAAGUGA
4. UACAGUAGUCUGCACAUUGGUU
5. ACUGCAGUGAAGGCACUUGU
6. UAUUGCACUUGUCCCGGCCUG
7. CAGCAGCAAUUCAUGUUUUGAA

Reply:
1: 0.973; 2: 0.387; 3: 1.37; 4: 0.408; 5: -0.112; 6: -2.99; 7: -2.64

###

Tested on: RB1
method.description: 3' UTR reporter interaction score (median-centred robust z-score of log2 firefly/Renilla activity); higher = less repression of the 3' UTR reporter
run.conditions: HEK293T; 48 h
Recorded 3' UTR reporter interaction score determines the group label, using low: < -0.3; middle: ≥ -0.3 and < 0.4; high: ≥ 0.4

As a guide, the following entries are already answered.
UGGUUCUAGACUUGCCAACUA = middle
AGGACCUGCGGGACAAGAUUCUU = middle
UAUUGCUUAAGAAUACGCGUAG = high
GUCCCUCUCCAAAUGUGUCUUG = middle
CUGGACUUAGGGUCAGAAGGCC = high

Query: Into which bin does this sequence go? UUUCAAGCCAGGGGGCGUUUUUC
Reply: middle

Query: Into which bin does this sequence go? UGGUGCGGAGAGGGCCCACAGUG
Reply: high

Query: Into which bin does this sequence go? AUUACAUGGCCAAUCUC
Reply: low

Query: Into which bin does this sequence go? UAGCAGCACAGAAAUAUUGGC
Reply: high

Query: Into which bin does this sequence go? UCUAGGCUGGUACUGCUGA
Reply: low

Query: Into which bin does this sequence go? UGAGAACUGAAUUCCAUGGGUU
Reply: low

Query: Into which bin does this sequence go? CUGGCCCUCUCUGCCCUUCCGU
Reply: low

Query: Into which bin does this sequence go? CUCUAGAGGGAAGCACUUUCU
Reply: low

Query: Into which bin does this sequence go? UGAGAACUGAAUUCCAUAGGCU
Reply: middle

Query: Into which bin does this sequence go? AACGCGCUUCCCUAUAGAGGG
Reply: high
